- target under test: High affinity choline transporter 1 (Homo sapiens)
- experiment summary: CHT inhibition at low and high choline, SAR follow-up, mechanism study for choline transporter inhibitor project, cell-based, HEK-293 hCHT LV-AA, [3H]-choline (AID 652215)
- setup conditions: [3H]-choline uptake, 15 min, measured here: 10 uM choline uptake, at 5 µM, stronger effect = lower value
value type: activity remaining, high choline (%)

# smiles repr, value type, recorded result
rows = [
    ("COc1ccc(C(=O)NCC[C@@H]2C[C@@H]3C=C[C@H]2C3)cc1OC1CCN(C(C)C)CC1", "activity remaining, high choline", 66.3),
    ("COc1ccc(C(=O)NCc2cc(C(C)C)no2)cc1OCc1ccccc1", "activity remaining, high choline", 97.2),
    ("CCc1cc(CNC(=O)c2ccc(OC)c(OCc3ccccc3)c2)on1", "activity remaining, high choline", 107),
    ("CCc1cc(CNC(=O)c2ccc(OC)c(OCCOC)c2)on1", "activity remaining, high choline", 80.6),
    ("COc1ccc(C(=O)NCCCn2cccn2)cc1OC1CCN(C(C)C)CC1", "activity remaining, high choline", 77.5),
    ("COc1ccc(C(=O)NCc2ccc(Cl)s2)cc1OC1CCN(C(C)C)CC1", "activity remaining, high choline", 81),
    ("CCOc1cc(C(=O)NCc2cc(C(C)C)no2)ccc1OC", "activity remaining, high choline", 78.2),
    ("CCc1cc(CNC(=O)c2ccc(OC)c(OC3CCCC3)c2)on1", "activity remaining, high choline", 99.4),
    ("COc1ccc(CNC(=O)c2ccc(OC)c(OC3CCN(C(C)C)CC3)c2)cc1OC", "activity remaining, high choline", 83.6),
    ("COc1ccc(C(=O)NCc2cc(C(C)C)no2)cc1OCc1ccccn1", "activity remaining, high choline", 100),
    ("CCc1cc(CNC(=O)c2ccc(OC)c(OCCN3CCOCC3)c2)on1", "activity remaining, high choline", 78.9),
    ("COc1ccc(C(=O)NCC2CCOCC2)cc1OC1CCN(C(C)C)CC1", "activity remaining, high choline", 74.5),
    ("CCc1cc(CNC(=O)c2ccc(OC)c(OCCN3CCCC3)c2)on1", "activity remaining, high choline", 71.4),
    ("COc1ccc(C(=O)NCCc2ccncc2)cc1OC1CCN(C(C)C)CC1", "activity remaining, high choline", 82.8),
    ("CCc1cc(CNC(=O)c2ccc(OC)c(O)c2)on1", "activity remaining, high choline", 90.1),
]
